Quick reference for pIC50 among some molecules
study-system: Itk (Homo sapiens, UniProt Q08881)
Construct: Kinases are expressed as either kinase domains or full length constructs; made in house
Sequence (Q08881 1-620): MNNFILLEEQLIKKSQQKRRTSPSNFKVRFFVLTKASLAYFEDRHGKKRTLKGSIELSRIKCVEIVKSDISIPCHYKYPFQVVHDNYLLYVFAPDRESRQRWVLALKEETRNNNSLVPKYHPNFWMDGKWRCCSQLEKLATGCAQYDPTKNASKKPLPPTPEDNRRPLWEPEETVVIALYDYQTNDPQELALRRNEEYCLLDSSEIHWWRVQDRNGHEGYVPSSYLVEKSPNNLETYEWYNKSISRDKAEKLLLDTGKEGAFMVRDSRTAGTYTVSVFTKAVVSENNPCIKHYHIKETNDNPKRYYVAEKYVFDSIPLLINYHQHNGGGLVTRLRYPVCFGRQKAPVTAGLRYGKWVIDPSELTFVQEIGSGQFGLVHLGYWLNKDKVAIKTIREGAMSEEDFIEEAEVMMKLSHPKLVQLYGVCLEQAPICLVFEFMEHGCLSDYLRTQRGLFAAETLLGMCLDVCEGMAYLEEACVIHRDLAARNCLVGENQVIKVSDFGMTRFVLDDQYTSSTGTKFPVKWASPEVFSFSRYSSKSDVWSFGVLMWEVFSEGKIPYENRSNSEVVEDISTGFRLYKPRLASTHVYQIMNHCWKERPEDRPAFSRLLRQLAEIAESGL
method-description: Kinase inhibition assay (33P transfer), Itk
Assay type: biochemical
recorded-conditions: Table 3, class symbols; read-out: Itk-1
pIC50: −log10 of the molar value.
readout-label: pIC50

molecule=COc1cc(Nc2ncnc(-c3cccnc3NC3CCN(Cc4ccccc4)CC3)n2)cc(OC)c1OC value_reported="< 5.07"
molecule=CCOc1cccc(Nc2ncnc(N3CCCc4cc(C)ccc43)n2)c1 value_reported="4.90 to 5.01"
molecule=COc1ccc(Nc2ncnc(N(C)C3CCCCC3)n2)cc1OC value_reported="4.99 to 5.16"
molecule=COc1cc(C)c(Nc2ncnc(Nc3cc(-c4ccc(Cl)cc4)n[nH]3)n2)cc1OC value_reported="5.26 to 6.04"
molecule="COc1cc(Nc2ncnc(-c3cccnc3NC3CCc4ccccc43)n2)cc(OC)c1OC (stereo not shown)" value_reported="< 5.02"
molecule=COc1cc(Nc2ncnc(-c3cccnc3NC(C)C)n2)ccc1NC(=O)CCCN1CCNCC1 value_reported="5.16 to 5.32"
molecule=OCc1cccc(Nc2ncnc(-c3cccnc3Nc3ccccc3)n2)c1 value_reported="< 4.92"
molecule=C=CCN(c1cccc(Cl)c1)c1ncnc(Nc2cc(OC)cc(OC)c2)n1 value_reported="> 6.00"
molecule=COc1cc(Nc2ncnc(-c3cccnc3Nc3ccc(Oc4ccccc4)cc3)n2)cc(OC)c1OC value_reported="< 5.06"
molecule=COc1ccc(Nc2ncnc(N(C)c3ccccc3OC(F)(F)F)n2)cc1OC value_reported="< 4.97"
molecule=c1ccc(Nc2ncccc2-c2ncnc(Nc3cccc(Cn4ccnn4)c3)n2)cc1 value_reported="< 4.97"
molecule=COc1ccc(Nc2ncnc(N(C)c3cccc(C)c3)n2)cc1OC value_reported="< 4.89"
molecule=Fc1ccc(CNc2ncccc2-c2ncnc(Nc3cccc(Cn4ccnn4)c3)n2)cc1 value_reported="< 5.00"
molecule=COc1ccc(Nc2ncnc(N(C)c3ccccc3Cl)n2)cc1OC value_reported="< 4.92"
molecule=COc1cc(Nc2ncnc(-c3cccnc3Nc3cccc(C(C)=O)c3)n2)cc(OC)c1OC value_reported="< 5.02"
molecule=CN(c1cccc(Br)c1)c1ncnc(Nc2cccc(Cc3nnn[nH]3)c2)n1 value_reported="< 4.99"
molecule=COc1ccc(Nc2ncnc(N(C)c3ccc(F)cc3F)n2)cc1OC value_reported="< 4.92"
molecule=Cc1ccc2c(c1)CCCN2c1ncnc(Nc2c(C)ccc3ccccc23)n1 value_reported="< 4.93"
molecule=COc1cc(Nc2ncnc(-c3cccnc3Nc3cc(Cl)cc(Cl)c3)n2)cc(OC)c1OC value_reported="< 5.05"
molecule=COC(=O)c1ccc(-c2cc(Nc3ncnc(Nc4cccc(Cc5nnn[nH]5)c4)n3)[nH]n2)cc1 value_reported="5.13 to 5.29"
molecule=COc1ccc(Nc2ncnc(N(C)c3ccc([N+](=O)[O-])cc3)n2)cc1OC value_reported="< 4.93"
molecule=Cc1ccc2c(c1)CCCN2c1ncnc(Nc2ccc(F)c(F)c2)n1 value_reported="< 4.90"
molecule=COc1ccc(Nc2ncnc(NCc3ccc(C)c(Cl)c3)n2)cc1OC value_reported="< 4.93"
molecule=COc1cc(Nc2ncnc(-c3cccnc3Nc3cccc4c3CCCC4)n2)cc(OC)c1OC value_reported="< 5.03"
molecule=CC(C)Nc1ncccc1-c1ncnc(Nc2cccc(CC(=O)O)c2)n1 value_reported="< 4.91"
molecule=Cc1ccc2c(c1)CCCN2c1ncnc(NCc2ccc(C(=O)O)cc2)n1 value_reported="< 4.92"
molecule=CNS(=O)(=O)Cc1ccc(Nc2ncnc(Nc3cc(-c4ccco4)[nH]n3)n2)cc1 value_reported="> 6.03"
molecule=Clc1cccc(Nc2ncnc(Nc3ccc4[nH]ncc4c3)n2)c1 value_reported="> 5.93"
molecule=c1cc(Nc2ncnc(Nc3cc(-c4ccco4)[nH]n3)n2)cc(-c2cnco2)c1 value_reported="> 5.98"
molecule=COC(=O)c1ccc(-c2cc(Nc3ncnc(Nc4cccc5ncccc45)n3)[nH]n2)cc1 value_reported="4.99 to 5.10"
molecule=COc1ccc(CNc2ncnc(Nc3cc(-c4ccco4)n[nH]3)n2)cc1 value_reported="< 4.91"
molecule="COc1cc(Nc2ncnc(-c3cccnc3NC(C)c3ccccc3)n2)cc(OC)c1OC (stereo not shown)" value_reported="< 5.01"
molecule=COc1ccc(Nc2ncnc(NCc3ncc(C(F)(F)F)cc3Cl)n2)cc1OC value_reported="< 4.99"
molecule=COc1ccc(Nc2ncnc(Nc3ccc4ncsc4c3)n2)cc1OC value_reported="5.20 to 5.98"
